Field: GI50. Provide a value for each of the molecules that follow.
# Test system: RXF 631
# procedure text: NCI tumour cell line growth inhibition, 48 h
The source made the active and inactive calls. No stated cut-off is given here; in the data, active = GI50 up to about 1.1 µM and inactive = higher.

Below, each entry is followed by its recorded GI50 result.
CC(=O)NNc1nc(C)c(C(=O)/C=C/c2ccccc2Cl)s1 ... > 100 µM (inactive)
O=C(/C=C/c1ccccc1F)c1ccc(Cl)c(Cl)c1 ... > 53.7 µM (inactive)
NC(=O)c1ncn(C2OC(CO)C(O)C2O)c1O (stereo not drawn) ... > 100 µM (inactive)
CC(C)(C)c1cc(CCC(=O)Nc2ccc(Cl)cc2Cl)nc(N)n1 ... > 100 µM (inactive)
OC1(c2ccccc2)OC(C#Cc2ccccc2)(c2ccccc2)c2ccccc21 (stereo not drawn) ... 3.13 µM (inactive)
O=C(CC(=O)N1N=C(n2ccc3ccccc32)CC1c1ccccc1)Nc1ccc(Cl)cc1 (stereo not drawn) ... > 100 µM (inactive)
O=C1c2ccccc2C(=O)c2c(NCCCNCCO)ccc(NCCCNCCO)c21 ... 17.8 µM (inactive)

# context switch: different molecule, same GI50
Which GI50 is reported for this molecule? COc1cc(C2c3cc4c(cc3[C@@H](N(C)C)[C@H]3COC(=O)C23)OCO4)cc(OC)c1O (stereo partly drawn)
42.2 µM (inactive)

----------
# System: SK-OV-3
# procedure text: NCI tumour cell line growth inhibition, 48 h
Calls of active or inactive are those of the source. Cut-off read from the data, not from the text of the source: active = GI50 up to about 1.1 µM and inactive = higher.
readout kind: GI50

Please review the following examples before continuing.
O=C(CC(=O)Nc1ccccc1)NNC(Sc1ccccc1)c1cc(/N=N/c2ccc(Br)cc2)ccc1O (centres undefined) ... 4.21 µM (inactive)
O=C1Nc2ccccc2/C1=N/Nc1ccc([N+](=O)[O-])cc1[N+](=O)[O-] ... 12.1 µM (inactive)
CN(C)Cc1cc(C(=O)/C=C/c2c(F)cccc2Cl)cc(CN(C)C)c1O ... 14.1 µM (inactive)
O=C1CCCC2=C(N1)C(=O)C=CC2=O ... > 100 µM (inactive)
N=C(N)SCCCN ... 22.4 µM (inactive)

Could I get GI50 for every one of these entries?
1. O/N=C1\CCc2nonc2\C1=N/Nc1ccccc1
2. COC1OC(Cn2cc([N+](=O)[O-])nc2C)C(O)C(O)C1O (centres undefined)
3. CC(=O)O[C@H]1CC[C@@]2(C)C(=CC[C@H]3[C@@H]4C[C@H](N5CCOCC5)[C@H](OC(C)=O)[C@@]4(C)CC[C@@H]32)C1
4. O=c1c2ccccc2nc2[nH][nH]c(=S)n12
5. N#CC1=CNc2sccc2S1(=O)=O

1: > 100 µM (inactive); 2: > 100 µM (inactive); 3: > 100 µM (inactive); 4: > 100 µM (inactive); 5: > 100 µM (inactive)

----------
# Test system: EKVX
# procedure text: NCI tumour cell line growth inhibition, 48 h
Calls of active or inactive are those of the source. No stated cut-off is given here; in the data, active = GI50 up to about 1.1 µM and inactive = higher.
Provide the reported GI50 of each item.

Below are 2 compounds. Give each one its GI50.
1. CC(=O)O[C@@H]1[C@@H](C)[C@]2(CC(c3ccoc3)OC2O)C2CCC3O[C@]3(C)[C@]2(C)[C@@H]1OC(C)=O (stereo partly drawn)
2. O=C1[C@@H]2C(c3c(Cl)cccc3Cl)=NO[C@@H]2C(=O)N1c1ccc(Cc2ccc(N3C(=O)[C@H]4C(c5c(Cl)cccc5Cl)=NO[C@H]4C3=O)cc2)cc1

["56.4 µM (inactive)", "> 100 µM (inactive)"]

API: value(readout=GI50, system=EKVX) for record CCOC(=O)c1cc2c(OCc3ccccc3)c(OC)cc3c2c(n1)N(c1ccc(OC)cc1)C(C)C3 (stereo not drawn)
> 50 µM (inactive)

----------
I'd appreciate it if you could supply GI50 values for the items below.
# System: TK-10
# procedure text: NCI tumour cell line growth inhibition, 48 h
Calls of active or inactive are those of the source. No stated cut-off is given here; in the data, active = GI50 up to about 1.1 µM and inactive = higher.

Recorded GI50, per entry:
N#C/C(C(=O)Nc1ccccc1)=C(/N)N1CCCC1 ... > 100 µM (inactive)
O=C1C=Cc2c(Cl)sc(Cl)c21 ... 2.24 µM (inactive)
O=c1c2ccccc2nc2[nH][nH]c(=S)n12 ... > 100 µM (inactive)

Quick batch: GI50 for everything below.
1. CC1=C(C(=O)OCCc2ccc([N+](=O)[O-])cc2)C(c2ccccc2[N+](=O)[O-])C(C(=O)OC(C)C)=C(C)N1 (stereo unspecified)
2. O=c1n(CCCN2CCOCC2)nc2n1-c1ccc3ccccc3c1SC2
3. NNC(=O)C(=O)N/N=C(\CCC(=O)Nc1ccc(Cl)cc1)Cc1nc2ccccc2s1
4. O=c1[nH]/c(=C/c2ccc(OCc3ccccc3)cn2)c(=O)[nH]/c1=C/c1ccc(F)cc1
5. CCN(CC)CCC(=O)OC1C(C)=CC(C)C(=O)CC(C(C)CC2CCC(O)C(OC)C2)OC(=O)C2CCCCN2C(=O)C(=O)[C@@]2(O)OC(CCC2C)CC(OC)\C(C)=C/C=C/C=C/C(C)CC(C)C(=O)C1OC (stereo partly specified)
6. O=C(Cc1ccccc1)NN1C(=O)/C(=C\c2ccc([N+](=O)[O-])cc2)S/C1=N\c1ccccc1
7. O=C(CC1(O)CCCCC1)OC1CCCC1
8. COc1cccc(Nc2nc(N)nc(N)c2N)c1

5.87 µM (inactive)
84.1 µM (inactive)
56.1 µM (inactive)
4.36 µM (inactive)
5.69 µM (inactive)
> 100 µM (inactive)
> 100 µM (inactive)
> 100 µM (inactive)

For each entry beneath this line, provide reported GI50.
1. CCCC(=O)N(C(=O)CCC)C1=C(Cl)C(=O)c2ccccc2C1=O
2. Fc1cc(C2=Nn3c(CNc4ccc(Cl)cc4)nnc3S/C2=C\c2ccc(-c3ccc(Cl)cc3)o2)c(Cl)cc1Cl
3. Nc1nc(N)c(N=O)c(Nc2ccc(I)cc2)n1
4. CCOC(=O)NCC(=O)NCC(=O)NCC(N)=O

1. 4.1 µM (inactive)
2. 17.5 µM (inactive)
3. 31 µM (inactive)
4. > 100 µM (inactive)

I'm curious: which GI50 was measured for NC(=O)c1ncn(C2OC(CO)C(O)C2O)c1O (stereo unspecified) tested on TK-10?
> 100 µM (inactive)

----------
# Tested on: Hs-578T
# procedure text: NCI tumour cell line growth inhibition, 48 h
Active and inactive are the calls of the source. Rule as the data show it: active = GI50 up to about 1.1 µM and inactive = higher.
API: response.call in 1.0 (active), 0.0 (inactive)

Below are worked cases with known answers.
O=C(Cc1ccccc1)NN1C(=O)/C(=C\c2ccc([N+](=O)[O-])cc2)S/C1=N\c1ccccc1 ... 0.0
N#Cc1nc(/C=C/c2nc(C#N)c(N)o2)oc1N ... 0.0
C/C=C(/CBr)CCC(Br)C(C)(C)Cl.C/C=C(\CBr)CCC(Br)C(C)(C)Cl (stereo not given) ... 0.0
O=C(c1ccccc1)C1C(c2ccccc2)N1S(=O)(=O)c1ccccc1 (stereo not given) ... 0.0

Hi team, can someone confirm the assay call for Cc1cc(O)c2c(c1)C[C@@H](O)C1=C2C(=O)c2c(O)ccc(OC3CC(O)C(OC4CC(OC5CCC(OC6CC(O)C(OC7CC(OC8CCC(O)C(C)O8)C(O)C(C)O7)C(C)O6)C(C)O5)C(O)C(C)O4)C(C)O3)c2C1=O (stereo not given in full) ?
1.0

----------
# Tested on: SNB-75
# procedure text: NCI tumour cell line growth inhibition, 48 h
Activity calls are given as the source filed them. No stated cut-off is given here; in the data, active = GI50 up to about 1.1 µM and inactive = higher.
Form entry, call: pick from 1 (active), 0 (inactive)

For orientation, consider the following solved cases.
Cc1ccc(/C=C2\CCCC(CN(C)C)C2=O)cc1 (stereo unspecified) ... 0
Clc1nc2c(N3CCCC3)nc(N3CCNCC3)nc2[nH]1 ... 0
Clc1ccccc1/C=C/c1cscn1 ... 0
CCC[C@@H]1C(=O)N=C(N)N1C(=O)OCc1ccccc1 ... 0
O=c1[nH]/c(=C/c2ccc(OCc3ccccc3)cn2)c(=O)[nH]/c1=C/c1ccc(F)cc1 ... 1

Continue with the next compound.
For this compound, state the assay outcome: NC(=O)CC1(O)C=CC(=O)C=C1
0

----------
I'd appreciate it if you could supply GI50 values for the items below.
# System: NCI-H226
# procedure text: NCI tumour cell line growth inhibition, 48 h
Activity calls are given as the source filed them. No stated cut-off is given here; in the data, active = GI50 up to about 1.1 µM and inactive = higher.

Cn1c2ccccc2n2c(=O)c3cccnc3c(C#N)c12 ... 4.42 µM (inactive)
Cc1cccc(C)c1NC(=O)C(C#N)C1=C(Cl)C(=O)c2ccccc2C1=O (stereo not given) ... 12.1 µM (inactive)
CC(C)=CCC[C@@H](C)C1=C(O)C(=O)C(C)=C(N[C@H](C)c2ccccc2)C1=O ... 4.27 µM (inactive)
Nc1ccccc1SC(C[N+](=O)[O-])c1ccc2c(c1)OCO2 (stereo not given) ... 11.2 µM (inactive)

What value of measured GI50 is listed for CSC1C(=O)Nc2ccc3ccccc3c21 (stereo not given) ?
45.5 µM (inactive)

----------
# Tested on: M14
# procedure text: NCI tumour cell line growth inhibition, 48 h
The source made the active and inactive calls. Cut-off read from the data, not from the text of the source: active = GI50 up to about 1.1 µM and inactive = higher.
Parameter call: string, one of yes (1) for active, no (0) for inactive

Any idea what this test logged for COc1cc2c(c(OC)c1OC)-c1cccc(=O)cc1C(NC(C)=O)CC2 (configuration not stated) ?
yes (1)

Then N#C/C(C(=O)Nc1ccccc1)=C(/N)N1CCCC1 ?
no (0)
